half-life at 20 μM values by entry
- experiment: in vitro
- setup-conditions: human, 20% fecal homogenate (supernatant), anaerobic, pH 6.8
measured-endpoint: half-life at 20 μM (h)

| smiles-entry | measured-endpoint | value-units | value-relation-sign | observed-result |
| --- | --- | --- | --- | --- |
| CC(=O)NCCCC[C@H](NC(=O)[C@](C)(CC(C)C)NC(=O)[C@H](Cc1ccc2ccccc2c1)NC(=O)[C@H](Cc1ccc(OCCN)cc1)NC(=O)[C@H]1NC(=O)[C@H](CCC(N)=O)NC(=O)[C@H](Cc2c[nH]c3c(C)cccc23)NC(=O)[C@H]([C@@H](C)O)NC(=O)[C@H](CC(N)=O)NC(=O)[C@@H](NC(C)=O)C(C)(C)SSC1(C)C)C(=O)N(C)CC(=O)NCCC(N)=O | half-life at 20 μM | h | > | 24 |
| CC(=O)N[C@H]1CCSC[C@@H](C(=O)N[C@@H](Cc2ccc(OCCN)cc2)C(=O)N[C@@H](Cc2ccc3ccccc3c2)C(=O)NC2(C(=O)N[C@@H](CCC(=O)O)C(=O)N[C@@H](CC(N)=O)C(=O)NCCC(N)=O)CCOCC2)NC(=O)[C@H](CCC(N)=O)NC(=O)[C@H](Cc2c[nH]c3c(C)cccc23)NC(=O)[C@H]([C@@H](C)O)NC(=O)[C@H](CCC(N)=O)NC1=O | half-life at 20 μM | h | = | 1 |

====

- experiment: Stability in simulated gastric fluid (SGF)
- Format: in vitro ADME
- setup-conditions: pig (pepsin), simulated gastric fluid (SGF) with porcine pepsin, pH=2, 37° C., 20 μM peptide, read-out: SGF t½ (converted)
half-life at 20 μM values by entry

| compound | half-life at 20 μM (h) |
| --- | --- |
| CC(=O)NCCCC[C@H](NC(=O)[C@](C)(CC(C)C)NC(=O)[C@H](Cc1ccc2ccccc2c1)NC(=O)[C@H](Cc1ccc(OCCN)cc1)NC(=O)[C@H]1NC(=O)[C@H](CCC(N)=O)NC(=O)[C@H](Cc2c[nH]c3ccc(F)cc23)NC(=O)[C@H]([C@@H](C)O)NC(=O)[C@H](CC(N)=O)NC(=O)[C@@H](NC(C)=O)C(C)(C)SSC1(C)C)C(=O)N[C@@H](CC(N)=O)C(=O)N[C@@H](CC(N)=O)C(N)=O [compound 7] | 12 |
| CC(=O)NCCCC[C@H](NC(=O)[C@](C)(CC(C)C)NC(=O)[C@H](Cc1ccc2ccccc2c1)NC(=O)[C@H](Cc1ccc(OCCN)cc1)NC(=O)[C@H]1NC(=O)[C@H](CCC(N)=O)NC(=O)[C@H](Cc2c[nH]c3cc(C)ccc23)NC(=O)[C@H]([C@@H](C)O)NC(=O)[C@H](CC(N)=O)NC(=O)[C@@H](NC(C)=O)C(C)(C)SSC1(C)C)C(=O)N[C@@H](CC(N)=O)C(=O)N[C@@H](CC(N)=O)C(N)=O [compound 5] | 12 |
| CC(=O)NCCCC[C@H](NC(=O)[C@](C)(CC(C)C)NC(=O)[C@H](Cc1ccc2ccccc2c1)NC(=O)[C@H](Cc1ccc(OCCN)cc1)NC(=O)[C@H]1NC(=O)[C@H](CCC(N)=O)NC(=O)[C@H](Cc2c[nH]c3c(C)cccc23)NC(=O)[C@H]([C@@H](C)O)NC(=O)[C@H](CC(N)=O)NC(=O)[C@@H](NC(C)=O)C(C)(C)SSC1(C)C)C(=O)N[C@@H](CC(N)=O)C(=O)NCCC(N)=O [compound 201] | 14 |
| CC(=O)NCCCC[C@H](NC(=O)[C@](C)(CC(C)C)NC(=O)[C@H](Cc1ccc2ccccc2c1)NC(=O)[C@H](Cc1ccc(OCCN)cc1)NC(=O)[C@H]1NC(=O)[C@H](CCC(N)=O)NC(=O)[C@H](Cc2c[nH]c3c(C)cccc23)NC(=O)[C@H]([C@@H](C)O)NC(=O)[C@H](CC(N)=O)NC(=O)[C@@H](NC(C)=O)C(C)(C)SSC1(C)C)C(=O)N[C@@H](CC(N)=O)C(=O)N[C@@H](CC(N)=O)C(N)=O [compound 6] | 12 |
